Sourced from ChEMBL document CHEMBL2424619

Target: Lethal(3)malignant brain tumor-like protein 3 (Homo sapiens)
Sequence (Q96JM7 whole entry): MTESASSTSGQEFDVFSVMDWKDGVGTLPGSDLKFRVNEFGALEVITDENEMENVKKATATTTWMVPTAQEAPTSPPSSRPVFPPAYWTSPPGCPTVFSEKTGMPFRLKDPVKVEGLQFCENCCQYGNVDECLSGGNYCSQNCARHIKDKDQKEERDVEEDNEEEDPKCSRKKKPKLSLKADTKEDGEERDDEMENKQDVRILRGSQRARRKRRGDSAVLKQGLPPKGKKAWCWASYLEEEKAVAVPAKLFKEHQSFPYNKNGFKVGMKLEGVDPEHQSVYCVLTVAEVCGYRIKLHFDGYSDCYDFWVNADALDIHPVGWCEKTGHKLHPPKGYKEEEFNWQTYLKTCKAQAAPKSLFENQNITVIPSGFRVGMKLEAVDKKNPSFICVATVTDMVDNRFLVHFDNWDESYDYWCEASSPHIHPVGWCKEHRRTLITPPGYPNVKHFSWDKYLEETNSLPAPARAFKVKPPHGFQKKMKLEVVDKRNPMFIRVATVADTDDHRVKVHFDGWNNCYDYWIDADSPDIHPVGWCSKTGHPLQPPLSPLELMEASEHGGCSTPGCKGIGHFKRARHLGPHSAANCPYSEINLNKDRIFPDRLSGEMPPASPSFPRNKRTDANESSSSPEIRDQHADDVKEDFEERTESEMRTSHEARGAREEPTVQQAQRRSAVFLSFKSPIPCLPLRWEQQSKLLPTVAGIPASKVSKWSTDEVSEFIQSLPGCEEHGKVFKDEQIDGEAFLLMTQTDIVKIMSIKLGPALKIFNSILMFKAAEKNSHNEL
Test: Inhibition of L3MBTL3 (unknown origin) after 30 mins by AlphaScreen assay
# pIC50 listing for each entry below
// field semantics: pIC50 = negative decimal log of concentration (mol/L)

Answered examples (8):
pIC50 of "O=C(c1ccc(C(=O)N2CCC(N3CCCC3)CC2)c([N+](=O)[O-])c1)N1CCC(N2CCCC2)CC1" on Lethal(3)malignant brain tumor-like protein 3 (Homo sapiens)? 6.80

pIC50 of "O=C(NCCCN1CCCC1)c1ccc(C(=O)N2CCC(N3CCCC3)CC2)cc1" on Lethal(3)malignant brain tumor-like protein 3 (Homo sapiens)? 6.17

pIC50 of "O=C(c1ccc(C(=O)N2CCC(N3CCCC3)CC2)c(C(=O)N2CCC(N3CCCC3)CC2)c1)N1CCC(N2CCCC2)CC1" on Lethal(3)malignant brain tumor-like protein 3 (Homo sapiens)? 6.92

pIC50 of "O=C(c1ccccc1C(=O)N1CCC(N2CCCC2)CC1)N1CCC(N2CCCC2)CC1" on Lethal(3)malignant brain tumor-like protein 3 (Homo sapiens)? 5.96

pIC50 of O=C(c1cccc(Br)c1)N1CC2CCC(C1)C2N1CCCC1 (centres undefined) on Lethal(3)malignant brain tumor-like protein 3 (Homo sapiens)? 5.49

pIC50 of "Nc1cc(C(=O)N2CCC(N3CCCC3)CC2)ccc1C(=O)N1CCC(N2CCCC2)CC1" on Lethal(3)malignant brain tumor-like protein 3 (Homo sapiens)? 6.64

pIC50 of O=C(c1ccc(C(=O)N2CC3CCC(C2)C3N2CCCC2)cc1)N1CC2CCC(C1)C2N1CCCC1 (centres undefined) on Lethal(3)malignant brain tumor-like protein 3 (Homo sapiens)? 6.40

pIC50 of "CCN1Cc2ccc(NC(=O)c3cccc(Br)c3)cc2C1" on Lethal(3)malignant brain tumor-like protein 3 (Homo sapiens)? 5.92

More entries:
pIC50 of "CN(C)C1CCN(C(=O)c2ccc(C(=O)N3CCC(N4CCCC4)CC3)cc2)CC1" on Lethal(3)malignant brain tumor-like protein 3 (Homo sapiens)? 6.51

###

Reported values: IC50 for Lysine-specific demethylase 5A (Homo sapiens), one per item.

IC50 of "O=C(c1ccc(C(=O)N2CCC(N3CCCC3)CC2)c2ccccc12)N1CCC(N2CCCC2)CC1" on Lysine-specific demethylase 5A (Homo sapiens)? > 10 µM

IC50 of CCN1Cc2ccc(NC(=O)c3ccc(C(=O)N4CCC(C5CCCN5)CC4)c(Nc4ccccc4)c3)cc2C1 (stereo not given) on Lysine-specific demethylase 5A (Homo sapiens)? > 10 µM

IC50 of "CN(C)C1CCN(C(=O)c2ccc(C(=O)N3CCC(N4CCCC4)CC3)cc2)CC1" on Lysine-specific demethylase 5A (Homo sapiens)? > 10 µM

IC50 of "O=C(c1cncc(Br)c1)N1CCC(N2CCCC2)CC1" on Lysine-specific demethylase 5A (Homo sapiens)? > 10 µM

IC50 of "O=C(c1ccc(C(=O)N2CCC(N3CCOCC3)CC2)cc1)N1CCC(N2CCCC2)CC1" on Lysine-specific demethylase 5A (Homo sapiens)? > 10 µM

###

Molecular target: Lethal(3)malignant brain tumor-like protein 3 (Homo sapiens, UniProt Q96JM7)
Assay: Inhibition of L3MBTL3 (unknown origin) after 30 mins by AlphaScreen assay
# IC50 listing for each entry below
# unit: µM | format: bare number

Answered examples (8):
IC50 of "O=C(c1ccc(C(=O)N2CCC(N3CCOCC3)CC2)cc1)N1CCC(N2CCCC2)CC1" on Lethal(3)malignant brain tumor-like protein 3 (Homo sapiens, UniProt Q96JM7)? 1.5

IC50 of O=C(c1ccc(C(=O)N2CCC(N3CCCC3)CC2)cc1)N1CCCC(N2CCCC2)CC1 (centres undefined) on Lethal(3)malignant brain tumor-like protein 3 (Homo sapiens, UniProt Q96JM7)? 0.096

IC50 of O=C(c1ccc(C(=O)N2CC3CNCC3C2)cc1)N1CCC(N2CCCC2)CC1 (centres undefined) on Lethal(3)malignant brain tumor-like protein 3 (Homo sapiens, UniProt Q96JM7)? 3.1

IC50 of "O=C(c1ccc(S(=O)(=O)N2CCC(N3CCCC3)CC2)cc1)N1CCC(N2CCCC2)CC1" on Lethal(3)malignant brain tumor-like protein 3 (Homo sapiens, UniProt Q96JM7)? 0.099

IC50 of "O=C(c1ccc(C(=O)N2CCC(N3CCCC3)CC2)c(-c2ccccc2)c1)N1CCC(N2CCCC2)CC1" on Lethal(3)malignant brain tumor-like protein 3 (Homo sapiens, UniProt Q96JM7)? 0.066

IC50 of "O=C(c1ccc(C(=O)N2CCC(N3CCCC3)CC2)cc1)N1CCC(C2CCCCC2)CC1" on Lethal(3)malignant brain tumor-like protein 3 (Homo sapiens, UniProt Q96JM7)? 2.4

IC50 of "O=C(c1ccc(C(=O)N2CCC(N3CCCC3)CC2)c(Nc2ccccc2)c1)N1CCC(N2CCCC2)CC1" on Lethal(3)malignant brain tumor-like protein 3 (Homo sapiens, UniProt Q96JM7)? 0.064

IC50 of "O=C(c1ccc(C(=O)N2CCC(N3CCCC3)CC2)c(Oc2ccccc2)c1)N1CCC(N2CCCC2)CC1" on Lethal(3)malignant brain tumor-like protein 3 (Homo sapiens, UniProt Q96JM7)? 0.058

More entries:
IC50 of O=C(c1ccc(C(=O)N2CC3CCC(C2)C3N2CCCC2)cc1)N1CCC(N2CCCC2)CC1 (centres undefined) on Lethal(3)malignant brain tumor-like protein 3 (Homo sapiens, UniProt Q96JM7)? 0.16

IC50 of "O=C(c1cccc(C(=O)N2CCC(N3CCCC3)CC2)c1)N1CCC(N2CCCC2)CC1" on Lethal(3)malignant brain tumor-like protein 3 (Homo sapiens, UniProt Q96JM7)? 0.36

IC50 of CCN1Cc2ccc(NC(=O)c3ccc(C(=O)N4CC5CCC(C4)C5N4CCCC4)cc3)cc2C1 (centres undefined) on Lethal(3)malignant brain tumor-like protein 3 (Homo sapiens, UniProt Q96JM7)? 0.24

IC50 of "O=C(c1ccc(C(=O)N2CCC(N3CCC3)CC2)cc1)N1CCC(N2CCC2)CC1" on Lethal(3)malignant brain tumor-like protein 3 (Homo sapiens, UniProt Q96JM7)? 0.4

IC50 of "O=C(c1ccc(C(=O)N2CCC(N3CCCC3)CC2)c2ccccc12)N1CCC(N2CCCC2)CC1" on Lethal(3)malignant brain tumor-like protein 3 (Homo sapiens, UniProt Q96JM7)? 0.072

###

pIC50: −log10 of the molar value.
Reported values: pIC50 for MBT domain-containing protein 1 (Homo sapiens), one per item.

pIC50 of "O=C(c1ccc(C(=O)N2CCC(N3CCCC3)CC2)c(C(=O)N2CCC(N3CCCC3)CC2)c1)N1CCC(N2CCCC2)CC1" on MBT domain-containing protein 1 (Homo sapiens)? < 5.00

pIC50 of CCN1Cc2ccc(NC(=O)c3ccc(C(=O)N4CCC(C5CCCN5)CC4)c(Nc4ccccc4)c3)cc2C1 (configuration not stated) on MBT domain-containing protein 1 (Homo sapiens)? 5.29

pIC50 of "O=C(c1c(F)c(F)c(C(=O)N2CCC(N3CCCC3)CC2)c(F)c1F)N1CCC(N2CCCC2)CC1" on MBT domain-containing protein 1 (Homo sapiens)? < 5.00

pIC50 of "Cc1cc(C(=O)N2CCC(N3CCCC3)CC2)c(C)cc1C(=O)N1CCC(N2CCCC2)CC1" on MBT domain-containing protein 1 (Homo sapiens)? < 5.00

pIC50 of "O=C(c1ccc(C(=O)N2CCC(N3CCCC3)CC2)c(Oc2ccccc2)c1)N1CCC(N2CCCC2)CC1" on MBT domain-containing protein 1 (Homo sapiens)? 5.03

pIC50 of "O=C(c1ccc(C(=O)N2CCC(N3CCCC3)CC2)cc1)N1CCC(C2CCNCC2)CC1" on MBT domain-containing protein 1 (Homo sapiens)? < 5.00

pIC50 of "O=C(c1ccc(C(=O)N2CCC(N3CCCC3)CC2)cc1)N1CCC(N2CCCC2)CC1" on MBT domain-containing protein 1 (Homo sapiens)? < 5.00

pIC50 of "O=C(c1ccc(C(=O)N2CCC(N3CCCC3)CC2)o1)N1CCC(N2CCCC2)CC1" on MBT domain-containing protein 1 (Homo sapiens)? < 5.00

pIC50 of O=C(c1ccc(C(=O)N2CC3CNCC3C2)cc1)N1CCC(N2CCCC2)CC1 (configuration not stated) on MBT domain-containing protein 1 (Homo sapiens)? < 5.00

pIC50 of CN1CCN2CC(NC(=O)c3ccc(C(=O)N4CCC(N5CCCC5)CC4)cc3)CC2C1 (configuration not stated) on MBT domain-containing protein 1 (Homo sapiens)? < 5.00

For the next question, use this compound.
pIC50 of "O=C(c1ccc(C(=O)N2CCC(N3CCCC3)CC2)c(Nc2ccccc2)c1)N1CCC(N2CCCC2)CC1" on MBT domain-containing protein 1 (Homo sapiens)? 5.05
